FYI, the data here is from patent US10703756B2.

Target: JAK3 enzyme (Homo sapiens)
Sequence (P52333 1-1124): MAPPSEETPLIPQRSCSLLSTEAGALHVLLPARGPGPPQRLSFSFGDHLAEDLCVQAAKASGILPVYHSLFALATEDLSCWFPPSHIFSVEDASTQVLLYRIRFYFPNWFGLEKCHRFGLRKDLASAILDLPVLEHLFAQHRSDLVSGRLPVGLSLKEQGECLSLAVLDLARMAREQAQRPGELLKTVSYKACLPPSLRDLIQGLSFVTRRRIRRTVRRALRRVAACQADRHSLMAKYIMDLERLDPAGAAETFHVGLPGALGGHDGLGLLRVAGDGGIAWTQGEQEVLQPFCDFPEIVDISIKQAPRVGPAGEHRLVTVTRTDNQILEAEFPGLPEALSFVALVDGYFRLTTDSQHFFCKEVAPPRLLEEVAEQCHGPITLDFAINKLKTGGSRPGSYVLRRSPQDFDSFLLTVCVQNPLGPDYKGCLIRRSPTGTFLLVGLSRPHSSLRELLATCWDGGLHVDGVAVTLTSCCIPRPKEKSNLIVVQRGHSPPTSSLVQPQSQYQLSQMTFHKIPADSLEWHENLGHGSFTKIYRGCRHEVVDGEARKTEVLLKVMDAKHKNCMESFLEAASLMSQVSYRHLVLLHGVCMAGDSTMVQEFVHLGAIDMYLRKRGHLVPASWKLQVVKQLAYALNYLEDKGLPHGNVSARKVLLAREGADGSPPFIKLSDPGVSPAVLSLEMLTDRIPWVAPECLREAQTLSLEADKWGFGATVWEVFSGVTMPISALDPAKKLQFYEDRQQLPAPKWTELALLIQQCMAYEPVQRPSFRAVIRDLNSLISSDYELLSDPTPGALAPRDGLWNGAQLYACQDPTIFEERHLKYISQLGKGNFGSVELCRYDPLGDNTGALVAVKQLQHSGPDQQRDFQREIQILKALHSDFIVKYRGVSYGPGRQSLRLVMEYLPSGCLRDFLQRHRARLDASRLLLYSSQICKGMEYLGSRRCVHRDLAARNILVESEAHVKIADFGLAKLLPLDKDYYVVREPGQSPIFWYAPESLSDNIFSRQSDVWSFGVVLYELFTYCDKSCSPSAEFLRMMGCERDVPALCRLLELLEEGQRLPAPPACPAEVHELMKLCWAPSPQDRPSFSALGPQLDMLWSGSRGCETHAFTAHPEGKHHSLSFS
Assay: JAK Caliper Enzyme Assay at 1 mM ATP
Format: biochemical
pIC50: −log10 of the molar value.
pIC50 by entry:
readout: pIC50

> print(dat)
                                    compound                         tgt  reported.relation  experimental.value
 1  C=CC(=O)N1CCN(c2cnc3[nH]cc(C(=O)NCCCC(F)(F)F)c3n2)CC1(C)C  JAK3 enzyme (Homo sapiens)                  =                6.19
 2  C=CC(=O)N1CCC(Oc2cnc3[nH]cc(C(=O)NC(CC)C4(O)CCC4)c3n2)CC1 (racemic)  JAK3 enzyme (Homo sapiens)                  =                6.46
 3  C=CC(=O)N1CCN(c2cnc3[nH]cc(C(=O)N[C@@H](COC)c4ccccc4)c3n2)CC1(C)C  JAK3 enzyme (Homo sapiens)                  =                5.32
 4  C=CC(=O)N1CCC(Nc2cnc3[nH]cc(C(=O)NCCC(F)(F)F)c3n2)CC1C (racemic)  JAK3 enzyme (Homo sapiens)                  =                6.87
 5  C=CC(=O)N1CCC(Oc2cnc3[nH]cc(C(=O)N[C@@H](C(C)C)[C@H](O)C(F)(F)F)c3n2)CC1  JAK3 enzyme (Homo sapiens)                  =                6.57
 6  C=CC(=O)N1C[C@H](Nc2ncnc3[nH]ccc23)C[C@H](O)[C@@H]1C  JAK3 enzyme (Homo sapiens)                  =                7.12
 7  C=CC(=O)N1CCN(c2cnc3[nH]cc(C(=O)N[C@@H](CO)Cc4cccc(C#N)c4)c3n2)CC1(C)C  JAK3 enzyme (Homo sapiens)                  =                5.54
 8  C=CC(=O)N1CCC(Nc2cnc3[nH]cc(C(=O)NCCCC(F)(F)F)c3n2)C1 (stereo in doubt)  JAK3 enzyme (Homo sapiens)                  =                7.25
 9  C=CC(=O)N1CCN(c2cnc3[nH]cc(C(=O)NCC4CC(F)(F)C4)c3n2)CC1  JAK3 enzyme (Homo sapiens)                  =                6.95
10  C=CC(=O)N1CC[C@H](Oc2cnc3[nH]cc(C(=O)NCC)c3n2)[C@@H](C)C1 (single isomer, unassigned)  JAK3 enzyme (Homo sapiens)                  =                5.51
11  C=CC(=O)N1CCC(Oc2cnc3[nH]cc(C(=O)N[C@H]4CC[C@H](F)C4)c3n2)CC1  JAK3 enzyme (Homo sapiens)                  =                7.27
12  C=CC(=O)N1CC[C@H](N(C)c2cnc3[nH]cc(C(=O)NCC)c3n2)C1 (single isomer, unassigned)  JAK3 enzyme (Homo sapiens)                  =                6.06
13  C=CC(=O)N1CCC(Oc2cnc3[nH]cc(C(=O)NCCCC#N)c3n2)CC1  JAK3 enzyme (Homo sapiens)                  =                6.98
14  C=CC(=O)N1CCCC(Oc2cnc3[nH]cc(C(=O)N[C@@H](C)COC)c3n2)C1 (mixture of isomers)  JAK3 enzyme (Homo sapiens)                  =                6.67
15  C=CC(=O)N1CC[C@@H](Nc2cnc3[nH]cc(C(=O)NCC(F)(F)F)c3n2)[C@@H](OC)C1  JAK3 enzyme (Homo sapiens)                  =                7.11
16  C=CC(=O)N1CCN(c2cnc3[nH]cc(C(=O)NCC(C)(F)F)c3n2)CC1(C)C  JAK3 enzyme (Homo sapiens)                  =                6.38
17  C=CC(=O)N1C[C@H](Nc2cnc3[nH]cc(C(=O)NCCOC)c3n2)[C@](C)(C#N)C1  JAK3 enzyme (Homo sapiens)                  =                6.53
18  C=CC(=O)N1CCN(c2cnc3[nH]cc(C(=O)N[C@H]4CCOC4)c3n2)CC1(C)C  JAK3 enzyme (Homo sapiens)                  =                5.95
19  C=CC(=O)N1C[C@H](Nc2cnc3[nH]cc(C(=O)NCC)c3n2)[C@H](C2CC2)C1  JAK3 enzyme (Homo sapiens)                  <                5.00
20  C=CC(=O)N1CCC(C)(Nc2cnc3[nH]cc(C(=O)N[C@H](C)COC)c3n2)CC1  JAK3 enzyme (Homo sapiens)                  =                7.24
21  C=CC(=O)N1CCC(Oc2cnc3[nH]cc(-c4ncnn4CC)c3n2)CC1  JAK3 enzyme (Homo sapiens)                  =                6.04
22  C=CC(=O)N1CC[C@H](Nc2cnc3[nH]cc(C(=O)N[C@H](C)COC)c3n2)C[C@@H]1C (stereo in doubt) [Example 354]  JAK3 enzyme (Homo sapiens)                  =                6.58
23  C=CC(=O)N1CCC(Nc2cnc3[nH]cc(C(=O)NCC4CCC4)c3n2)CC1  JAK3 enzyme (Homo sapiens)                  =                8.30
24  C=CC(=O)N1CCN(c2cnc3[nH]cc(C(=O)N[C@@H](C)[C@H](O)c4ccccc4)c3n2)CC1(C)C  JAK3 enzyme (Homo sapiens)                  =                5.39
25  C=CC(=O)N1CCC(Oc2cnc3[nH]cc(C(=O)NC(C)C4CC4)c3n2)CC1 (racemic)  JAK3 enzyme (Homo sapiens)                  =                7.74
26  C=CC(=O)N1CCC(Oc2cnc3[nH]cc(C(=O)N[C@@H]4C[C@H]4C(F)(F)F)c3n2)CC1  JAK3 enzyme (Homo sapiens)                  =                6.33
27  C=CC(=O)N1CCN(c2cnc3[nH]cc(C(=O)N[C@@H]4C[C@H]4C(F)(F)F)c3n2)CC1(C)C  JAK3 enzyme (Homo sapiens)                  =                5.67
28  C=CC(=O)N1CCC(Oc2cnc3[nH]cc(-c4n[nH]c(C(C)C)n4)c3n2)CC1  JAK3 enzyme (Homo sapiens)                  =                5.59
29  C=CC(=O)N1C[C@@H](CO)C[C@@H](Nc2ncnc3[nH]ccc23)C1 (racemic) [Example 97]  JAK3 enzyme (Homo sapiens)                  =                6.73
30  C=CC(=O)N1CC[C@H](Nc2cnc3[nH]cc(C(=O)NCC)c3n2)[C@@H](C)C1 (single isomer, unassigned)  JAK3 enzyme (Homo sapiens)                  =                7.24
